Numbers sourced from ChEMBL document CHEMBL1201862.

Below, each entry is listed alongside its reported EC50.
test.system: Streptokinase A (Streptococcus pyogenes serotype M1)
Sequence (P10520 whole entry): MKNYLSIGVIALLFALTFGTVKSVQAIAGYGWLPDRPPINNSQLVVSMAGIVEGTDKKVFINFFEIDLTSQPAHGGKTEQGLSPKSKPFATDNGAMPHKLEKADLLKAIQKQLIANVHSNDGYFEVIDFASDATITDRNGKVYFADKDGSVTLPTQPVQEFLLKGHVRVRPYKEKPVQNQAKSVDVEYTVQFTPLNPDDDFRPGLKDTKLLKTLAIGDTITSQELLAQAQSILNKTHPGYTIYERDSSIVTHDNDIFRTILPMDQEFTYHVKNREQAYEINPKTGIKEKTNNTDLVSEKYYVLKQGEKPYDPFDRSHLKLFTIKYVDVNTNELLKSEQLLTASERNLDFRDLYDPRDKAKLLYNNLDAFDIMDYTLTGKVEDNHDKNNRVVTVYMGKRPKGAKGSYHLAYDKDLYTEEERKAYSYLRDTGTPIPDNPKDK
protocol.text: S. pyogenes streptokinase expression inhibitors, potency, dose response, plasminogen activation absorbance, OD405 (AID 1914);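 note: secreted streptokinase activity via plasminogen activation per viability signal from cell pellet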
Assay type: functional, Streptococcus pyogenes M1 GAS
Active and inactive are the calls of the source.

Solved cases below.
| compound | EC50 |
| --- | --- |
| CC(C)c1ccc(-n2cccc2/C=C2/C(=N)N3C=CSC3=NC2=O)cc1 | > 150 µM (not active) |
| C=CCn1c(N2C(=O)CC(Cc3ccccc3)C2=O)nc2ccccc21 (stereo unspecified) | > 150 µM (not active) |

Q) Give the measured EC50 for COc1cc(C(=O)NS(=O)(=O)c2ccccc2C)ccc1Cc1cn(C)c2ccc(NC(=O)OC3CCCC3)cc12
A) > 50 µM (not active)

Q) # return recorded EC50 for entry COc1cc(C(=O)OCC(=O)c2c(N)n(C)c(=O)n(C)c2=O)ccc1OCCC(C)C
A) > 150 µM (not active)

Q) State its EC50: CN1C(=O)/C(=C\c2ccccc2F)Sc2ccc(C(=O)NC3CCN(Cc4ccccc4)CC3)cc21
A) > 150 µM (not active)

Q) Dear colleague, please send me the reported EC50 for Cc1ccnn2c(-c3ccccc3)c3c(=O)n(C)c(=O)n(C)c3c12 when you can.
A) > 150 µM (not active)

Q) Output EC50 of CCc1nc(N)nc(N)c1-c1ccc(Cl)cc1
A) > 150 µM (not active)

Q) Look up EC50 of Fc1ccc(CSc2nc3ccccc3[nH]2)c2ccccc12 and report it.
A) 14.1 µM (active)

----------
test.system: Corticotropin-releasing factor receptor 2/Corticotropin-releasing factor-binding protein (Homo sapiens, UniProt P24387+Q13324)
Sequence (Q13324 whole entry): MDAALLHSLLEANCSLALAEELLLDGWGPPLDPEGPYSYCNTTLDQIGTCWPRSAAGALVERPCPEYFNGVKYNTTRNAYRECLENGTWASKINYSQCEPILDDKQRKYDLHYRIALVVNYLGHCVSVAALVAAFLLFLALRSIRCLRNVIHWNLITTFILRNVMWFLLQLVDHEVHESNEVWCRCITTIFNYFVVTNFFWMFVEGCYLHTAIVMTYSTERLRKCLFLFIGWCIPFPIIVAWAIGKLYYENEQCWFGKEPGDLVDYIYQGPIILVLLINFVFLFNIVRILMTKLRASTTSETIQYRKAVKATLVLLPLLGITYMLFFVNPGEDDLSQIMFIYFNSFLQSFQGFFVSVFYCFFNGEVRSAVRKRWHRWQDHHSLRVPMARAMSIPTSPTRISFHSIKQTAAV
Sequence (P24387 whole entry): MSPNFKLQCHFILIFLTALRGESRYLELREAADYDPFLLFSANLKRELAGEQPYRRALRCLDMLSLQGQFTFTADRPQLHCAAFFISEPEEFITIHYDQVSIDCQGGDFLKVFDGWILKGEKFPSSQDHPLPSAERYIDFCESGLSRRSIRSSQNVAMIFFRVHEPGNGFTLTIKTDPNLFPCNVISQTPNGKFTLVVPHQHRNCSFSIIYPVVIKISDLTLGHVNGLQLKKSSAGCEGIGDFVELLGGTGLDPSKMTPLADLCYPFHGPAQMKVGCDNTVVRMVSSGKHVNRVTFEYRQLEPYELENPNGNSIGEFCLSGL
protocol.text: Dose Response confirmation of uHTS hits for small molecule antagonists of the CRF-binding protein and CRF-R2 receptor complex.
Assay type: functional
experimental.parameters: read-out: IC50_Mean
Calls of active or inactive are those of the source.
# valid calls are true = active, false = inactive; nothing else

Look over these answered cases.
| compound | assigned.label |
| --- | --- |
| O=C(CC1SC(N/N=C/C=C/c2ccccc2)=NC1=O)Nc1ccc(Cl)c(Cl)c1 (stereo not drawn) | false |
| COc1ccc(/C=C/c2nc(O)cc(-c3ccccc3)n2)cc1 | false |
| O=C1NC(=S)S/C1=C\c1cc(Cl)ccc1Cl | true |
| CCN1CCN(CC(=O)N2N=CCC2c2ccccc2)CC1 (stereo not drawn) | false |
| CC1(O)c2ccccc2C(=O)N1CCc1ccccc1F (stereo not drawn) | false |

Q) Tell me the assay call for CN(C)c1ccc(NC(=O)COC(=O)Cn2nnc3ccccc32)cc1 please.
A) false

Q) Entry CC(C)(CNC(=O)c1ccc(Br)o1)CNC(=O)c1ccc(Br)o1 : call = ?
A) false

Q) I'd appreciate the recorded outcome for Cc1cc(C)n(-c2ccc(C(=O)Oc3ccc4c(c3)OCO4)cc2)n1 from this test.
A) true

----------
Overview of reported AC50 across a group of compounds:
protocol.text: P. falciparum Dd2 growth inhibitors, dose response, SYBR Green, cherry-picked samples (AID 1159567)
Type: functional, cell-based
Activity calls are given as the source filed them.

Sample records with AC50:
| structure.string | result |
| --- | --- |
| N#C[C@@H]1[C@H](c2ccccc2-c2cccc(F)c2)[C@H](CO)N1C(=O)C1CC1 | 3.48 µM (active) |
| COc1cc(CN2C[C@@H]3N[C@H](C2)[C@H]3c2ccc(-c3ccncc3)cc2)cc(OC)c1 | 1.63 µM (active) |

Now let's try a different one.
Q) Read the entry CCCC(=O)Nc1ccc2c(c1)OC[C@@H](C)N(Cc1cccc(F)c1)C[C@@H](C)[C@H](OC)CN(C)C2=O and write its reported AC50.
A) 1.09 µM (active)

----------
The molecules listed here are annotated with their EC50.
protocol.text: inhibitors of intracellular T. cruzi replication, confirmation, NIH3T3 host cells, beta-gal luminescence (AID 2044);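 note: intracellular parasites grown in NIH/3T3 mouse fibroblasts as host cells; luminescent beta-galactosidase reporter signal from transgenic T. cruzi replicating inside host cells; inhibitors lower the luminescence signal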
Format: functional, cell-based
The source made the active and inactive calls.

Before answering, review these 3 worked examples.
| molecule | result |
| --- | --- |
| CN1C(=O)/C(=C\c2ccccc2F)Sc2ccc(C(=O)NC3CCN(Cc4ccccc4)CC3)cc21 | 243 nM (active) |
| COc1ccc(N2CCN(C(CNC(=O)Oc3ccccc3)c3cccnc3)CC2)cc1 (centres undefined) | < 100 nM (active) |
| CN1CCC(NC(=O)Nc2ccc(Br)cc2)CC1 | 188 nM (active) |

# input for lookup
Q) Annotate the molecule COc1ccc(/N=C2\S/C(=C\c3ccc(N4CCOCC4)o3)C(=O)N2CCc2c[nH]c3ccccc23)cc1 with its measured EC50.
A) 335 nM (active)

----------
test.system: Corticotropin-releasing factor receptor 2/Corticotropin-releasing factor-binding protein (Homo sapiens, UniProt P24387+Q13324)
protocol.text: activators of CRF receptor 2 with binding protein – uHTS hits, confirmation (AID 602473)
Format: functional
experimental.parameters: read-out: EC50_Mean
Calls of active or inactive are those of the source.
assay.metric: EC50

Solved entries:
| structure.string | assay.metric | result |
| --- | --- | --- |
| Cc1ccc(-n2[nH]c(C)c(/C=N/Nc3ccc([N+](=O)[O-])cc3[N+](=O)[O-])c2=O)cc1 | EC50 | > 53 µM (inactive) |
| Cc1cc(C)n(-c2ccc(C(=O)Oc3ccc4c(c3)OCO4)cc2)n1 | EC50 | > 53 µM (inactive) |
| O=C1NC(=S)S/C1=C\c1cc(Cl)ccc1Cl | EC50 | > 53 µM (inactive) |
| CCOC(=O)N1CCN(S(=O)(=O)c2ccc(C)c(C)c2C)CC1 | EC50 | > 53 µM (inactive) |
| CC(C)(CNC(=O)c1ccc(Br)o1)CNC(=O)c1ccc(Br)o1 | EC50 | > 53 µM (inactive) |

Please examine the following record next.
Q) Input CCCCCCc1cc2cc(C(=O)Nc3ccccc3OC)c(=O)oc2cc1O , output reported EC50.
A) 1.97 µM (active)

----------
test.system: Ubiquitin-conjugating enzyme E2 N (Homo sapiens);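 note: Dose-response confirmation in a TR-FRET assay detecting UBC13-driven polyubiquitin chain formation, inhibition measured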
Sequence (P61088 whole entry): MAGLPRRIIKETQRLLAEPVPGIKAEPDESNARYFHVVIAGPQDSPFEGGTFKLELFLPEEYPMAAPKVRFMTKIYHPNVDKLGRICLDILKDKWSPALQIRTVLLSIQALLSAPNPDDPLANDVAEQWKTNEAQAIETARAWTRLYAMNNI
Assay type: functional
Active and inactive are the calls of the source.
Tick one outcome: active, inactive

Worked examples follow.
| molecule | assigned.label |
| --- | --- |
| NC1=NC[C@H](CC2CCCCC2)N1CCc1cc(C(F)(F)F)cc(C(F)(F)F)c1 | active |
| O=C(CSc1nc2ccsc2c(=O)n1Cc1ccccc1)NCC1CCCO1 (stereo not given) | inactive |

Q) Short answer needed: outcome of this test for O=C(NCC1CCCCC1)C1(CC2CC(c3ccc(Cl)cc3)=NO2)CCNCC1 (stereo not given) ?
A) inactive

Q) Hi team, can someone confirm the assay call for CN1CCN(c2cc(-c3cc(O)c4ncccc4c3)ccn2)CC1 ?
A) active

Q) Please share the test call associated with O=C(C(=O)N1CCOCC1)c1cn(Cc2ccccc2Cl)c2ccccc12 .
A) inactive

----------
test.system: UniProt:G5EF15
Sequence (G5EF15 whole entry): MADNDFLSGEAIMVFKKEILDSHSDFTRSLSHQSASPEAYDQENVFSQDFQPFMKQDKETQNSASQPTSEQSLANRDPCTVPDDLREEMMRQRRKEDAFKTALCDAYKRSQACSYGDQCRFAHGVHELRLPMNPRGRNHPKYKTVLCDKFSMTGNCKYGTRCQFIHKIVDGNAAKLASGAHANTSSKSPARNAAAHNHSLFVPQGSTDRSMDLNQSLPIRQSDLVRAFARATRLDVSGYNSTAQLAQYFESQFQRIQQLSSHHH
protocol.text: inhibitors of POS-1/mex-3 RNA binding, dose response, biochemical, fluorescence polarization (AID 1964);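 note: purified POS-1 fused to maltose binding protein made in E. coli; potency of compounds blocking POS-1 binding to fluorescent RNA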
Active and inactive are the calls of the source.
Property: EC50; scope: individual compounds

Observe how each entry below is paired with its result.
| structure.string | assay.metric | result |
| --- | --- | --- |
| O=C(O)c1cc(-n2cccc2)ccc1N1CCOCC1 | EC50 | > 300 µM (not active) |
| Cc1cccc(N(C)S(=O)(=O)c2nnc(NC(=O)c3ccco3)s2)c1 | EC50 | > 300 µM (not active) |
| O=C(NNC(=O)c1ccccc1[N+](=O)[O-])c1cnccn1 | EC50 | 76.5 µM (active) |
| O=C(/C=C/c1c(Cl)cccc1Cl)N1CCOCC1 | EC50 | > 300 µM (not active) |
| O=C(c1coc(=O)c(Br)c1)N1CCCc2ccccc21 | EC50 | > 300 µM (not active) |

Q) State its EC50: COc1ccc2[nH]c(SCC(=O)Nc3nonc3C)nc2c1
A) 18.4 µM (active)
